Collected literature values of IC50 measured for MALT1 (Homo sapiens, UniProt Q9UDY8).

molecule=Cn1ncc2cccc(NS(=O)(=O)c3ccc(-n4cc(C(F)(F)F)cn4)nc3)c21 assay_target="MALT1 (Homo sapiens, UniProt Q9UDY8)" result="0.4 to 1 µM"
molecule=CN1CCn2ncc(-c3ccc(S(=O)(=O)Nc4cccc5cnn(C)c45)cn3)c2C1 assay_target="MALT1 (Homo sapiens, UniProt Q9UDY8)" result="> 2.5 µM"
molecule=COc1ccc2cnn(C)c2c1N(C)S(=O)(=O)c1ccc(-n2ccc(C(F)(F)F)n2)nc1 assay_target="MALT1 (Homo sapiens, UniProt Q9UDY8)" result="< 0.4 µM"

Hi team, please reply with IC50 for each item in this list.
1. COc1ccc2cn(C)nc2c1NS(=O)(=O)c1cnn(-c2ccnc(C(F)(F)F)c2)c1
2. COc1ccc2cnn(C)c2c1NS(=O)(=O)c1cnn(-c2cc(C3CC3)ccn2)c1
3. COc1ccc2cnn(C)c2c1NS(=O)(=O)c1ccc(-n2cc(C3CC3)cn2)nc1

Key:
["0.4 to 1 µM", "≤ 0.4 µM", "< 0.4 µM"]

Hi team, please reply with IC50 for each item in this list.
1. CC1(CNC(=O)c2ncc(NC(=O)c3cc(F)c(-c4ccc(F)cc4N)cc3Cl)cc2Cl)CC1
2. Nc1ccccc1-c1cc(F)c(C(=O)Nc2cnc(-n3nccn3)c(C(F)(F)F)c2)cc1Cl
3. Cn1ncc2cccc(NS(=O)(=O)c3cnn(-c4cc(N5CC(C(N)=O)C5)ccn4)c3)c21
4. CC(C)Oc1ccc2cnn(C)c2c1NS(=O)(=O)c1cnn(-c2ccnc(C(F)(F)F)c2)c1
5. COc1ncc2cnn(C)c2c1NS(=O)(=O)c1cnn(-c2cc(C(C)(C)C)ccn2)c1
6. COc1ccc2cnn(C)c2c1NS(=O)(=O)c1cnn(-c2cc(N3CCC(F)(F)C3)ccn2)c1

Key:
1. 0.1 to 0.5 µM
2. ≤ 0.01 µM
3. > 2.5 µM
4. ≤ 0.4 µM
5. ≤ 0.4 µM
6. > 2.5 µM

----------
Collected literature values of IC50 measured for MALT1 (Homo sapiens).

compound=CN(C)c1ccnc(-n2cc(S(=O)(=O)Nc3cccc4cnn(C)c34)cn2)c1 assay_target="MALT1 (Homo sapiens)" result="> 2500 nM"

Hi team, please reply with IC50 for each item in this list.
1. COc1ccc2cnn(C)c2c1NS(=O)(=O)c1ccc(-n2cc(C(C)O)cn2)nc1 (centres unmarked)
2. CCC(O)(CC)c1ccnc(-n2cc(S(=O)(=O)Nc3cccc4cnn(C)c34)cn2)c1
3. Nc1cc(F)ccc1-c1cc(Cl)c(C(=O)Nc2cnc(C(=O)NCc3ccoc3)c(Cl)c2)cc1F
4. Cn1ncc2cccc(NS(=O)(=O)c3ccc(-c4cnn(C5COC5)c4)nc3)c21
5. Cn1ncc2cccc(NS(=O)(=O)c3cnn(-c4cc(N5CC[C@@H](F)C5)ccn4)c3)c21

Key:
["1000 to 2500 nM", "> 2500 nM", "10 to 100 nM", "> 2500 nM", "> 2500 nM"]

Hi team, please reply with IC50 for each item in this list.
1. [2H]C([2H])([2H])c1ccc2cnn(C)c2c1NS(=O)(=O)c1cnn(-c2cc(C(F)(F)F)ccn2)c1
2. CCc1ccc2cnn(C)c2c1NS(=O)(=O)c1cnn(-c2ccnc(C)c2)c1

Key:
1: ≤ 400 nM; 2: ≤ 400 nM

----------
pIC50: −log10 of the molar value.
Collected literature values of pIC50 measured for UniProt:Q9UDY8.

smiles_repr=CC[C@@](C)(O)c1ccnc(-n2cc(S(=O)(=O)Nc3cccc4cnn(C)c34)cn2)c1 result="< 5.60"
smiles_repr=Nc1cnccc1-c1cc(F)c(C(=O)Nc2cnc(-n3nccn3)c(Cl)c2)cc1Cl result="≥ 8.00"
smiles_repr=Cn1ncc2cccc(NS(=O)(=O)c3ccc(-c4cc[nH]c4)nc3)c21 result="< 5.60"
smiles_repr=Cn1cncc1-c1ccc(S(=O)(=O)Nc2cccc3cnn(C)c23)cn1 result="< 5.60"
smiles_repr=[2H]C([2H])([2H])n1ncc2ccc(OC)c(NS(=O)(=O)c3ccc(-n4cc(Cl)cn4)nc3)c21 result="> 6.40"

Hi team, please reply with pIC50 for each item in this list.
1. CCc1ccc2cnn(C)c2c1NS(=O)(=O)c1cnn(-c2cc(C)ccn2)c1
2. COC[C@@](C)(F)c1ccnc(-n2cc(S(=O)(=O)Nc3cccc4cnn(C)c34)cn2)c1
3. COc1ncc2cnn(C)c2c1NS(=O)(=O)c1ccc(-c2cnn3c2COCC3)nc1
4. C#Cc1cnccc1-c1cc(Cl)c(C(=O)Nc2cnc(C(=O)NCCOC(F)(F)F)c(Cl)c2)cc1F

Key:
["≥ 6.40", "< 5.60", "5.60 to 6.00", "7.00 to 8.00"]

Hi team, please reply with pIC50 for each item in this list.
1. O=C(Nc1cnc(-n2nccn2)c(Cl)c1)c1cc(F)c(-c2ccncc2C2CC2)cc1Cl
2. Cn1nc(F)c2cccc(NS(=O)(=O)c3cnn(-c4cc(C(C)(F)F)ccn4)c3)c21
3. Cn1ncc2cccc(NS(=O)(=O)c3cnn(-c4cc(C5(O)CC(C)(C)C5)ccn4)c3)c21
4. Cc1ncccc1-c1ccc(S(=O)(=O)Nc2cccc3cnn(C)c23)cn1
5. C#Cc1c(F)nc(F)c(N)c1-c1cc(Cl)c(C(=O)Nc2cnc(-n3nccn3)c(C(F)(F)F)c2)cc1F
6. C[C@H]1COC(=O)N1c1ccnc(-n2cc(S(=O)(=O)Nc3cccc4cnn(C)c34)cn2)c1
7. COc1ccc2cnn(C)c2c1NS(=O)(=O)c1ccc(-n2ccc(C3CC3)n2)nc1

Key:
1. 7.00 to 8.00
2. < 5.60
3. < 5.60
4. < 5.60
5. ≥ 8.00
6. < 5.60
7. > 6.40

----------
Collected literature values of pIC50 measured for MALT1 (Homo sapiens, UniProt Q9UDY8).
pIC50: −log10 of the molar value.

These recorded examples may help you get a feel for the data.
smiles_repr=COc1ccc2cnn(C)c2c1NS(=O)(=O)c1cnn(-c2cc(C(F)F)ccn2)c1 assay_target="MALT1 (Homo sapiens, UniProt Q9UDY8)" result="≥ 6.40"
smiles_repr=Cc1cn(-c2ccc(S(=O)(=O)Nc3cccc4cnn(C)c34)cn2)nn1 assay_target="MALT1 (Homo sapiens, UniProt Q9UDY8)" result="< 5.60"
smiles_repr=O=S(=O)(c1ccc(-n2cc(C(F)(F)F)cn2)nc1)N1CCn2ncc3cccc1c32 assay_target="MALT1 (Homo sapiens, UniProt Q9UDY8)" result="< 5.60"

Hi team, please reply with pIC50 for each item in this list.
1. Nc1ccccc1-c1cc(Cl)c(C(=O)Nc2cnc(-n3nccn3)c(Cl)c2)cc1F
2. COc1ccc2cnn(C)c2c1NS(=O)(=O)c1cnn(-c2cnn3c2OCCC3)c1

Key:
≥ 8.00
< 5.60

Hi team, please reply with pIC50 for each item in this list.
1. CC[C@@H](OC)c1ccnc(-n2cc(S(=O)(=O)Nc3c(OC)ccc4cnn(C)c34)cn2)c1
2. CN1CC(C)(C)N(c2ccnc(-n3cc(S(=O)(=O)Nc4cccc5cnn(C)c45)cn3)c2)C1=O
3. COc1ccc2cnn(C)c2c1NS(=O)(=O)c1cnn(-c2cc(C3COC3)ccn2)c1

Key:
1. ≥ 6.40
2. < 5.60
3. 6.00 to 6.40

----------
Collected literature values of IC50 measured for MALT1 (Homo sapiens, UniProt Q9UDY8).

These recorded examples may help you get a feel for the data.
compound=COc1ccc2cn(C)nc2c1NS(=O)(=O)c1ccc(-n2cc(C(F)(F)F)cn2)nc1 result="< 400 nM"
compound=Cn1ncc2cccc(NS(=O)(=O)c3cnn(-c4cc(C5(O)CCCCC5)ccn4)c3)c21 result="> 2500 nM"
compound=O=S(=O)(c1ccc(-n2cc(C(F)(F)F)cn2)nc1)N1CCCCn2ncc3cccc1c32 result="> 2500 nM"
compound=COC1(c2ccnc(-n3cc(S(=O)(=O)Nc4cccc5cnn(C)c45)cn3)c2)CCC1 result="> 2500 nM"

Hi team, please reply with IC50 for each item in this list.
1. CC[C@H](OC)c1ccnc(-n2cc(S(=O)(=O)Nc3c(OC)ccc4cnn(C)c34)cn2)c1
2. Nc1cc(F)ccc1-c1cc(F)c(C(=O)Nc2cnc(-n3nccn3)c(C(F)(F)F)c2)cc1Cl
3. Cn1ncc2cccc(NS(=O)(=O)c3cnn(-c4cc(C5(O)COC5)ccn4)c3)c21
4. COc1ccc2cnn(C)c2c1NS(=O)(=O)c1ccc(-c2cnc3n2CCOC3)nc1
5. COC1(C)CN(c2ccnc(-n3cc(S(=O)(=O)Nc4cccc5cnn(C)c45)cn3)c2)C1
6. CCc1ccc2cn(C)nc2c1NS(=O)(=O)c1cnn(-c2ccnc(C(F)(F)F)c2)c1
7. Cn1ncc2cccc(NS(=O)(=O)c3ccc(-c4cncc(C#N)c4)nc3)c21
8. Cn1ncc2cccc(NS(=O)(=O)c3ccc(-n4ncc5c4CCOC5)nc3)c21

Key:
≤ 400 nM
≤ 10 nM
> 2500 nM
1000 to 2500 nM
> 2500 nM
≤ 400 nM
> 2500 nM
> 2500 nM

Hi team, please reply with IC50 for each item in this list.
1. COc1ncc2cnn(C)c2c1NS(=O)(=O)c1ccc(-c2cnn3c2COCCC3)nc1
2. Cn1ncc2cccc(NS(=O)(=O)c3cnn(-c4cc(C5(F)CC(F)C5)ccn4)c3)c21 (stereo not shown)
3. COc1ncc2cnn(C)c2c1NS(=O)(=O)c1ccc(-c2cc(C3CC3)n[nH]2)nc1
4. Cn1ncc2cccc(NS(=O)(=O)c3cnn(-c4ccnc(C5CC5)c4)c3)c21
5. COc1ccc2cnn(C)c2c1NS(=O)(=O)c1ccc(-n2cccn2)nc1
6. COc1ncc2cnn(C)c2c1NS(=O)(=O)c1ccc(-n2cc(C3CC3)cn2)nc1
7. COc1ccc2cnn(C)c2c1NS(=O)(=O)c1ccc(-c2ccn(C)n2)nc1

Key:
["> 2500 nM", "> 2500 nM", "1000 to 2500 nM", "> 2500 nM", "1000 to 2500 nM", "< 400 nM", "> 2500 nM"]

Hi team, please reply with IC50 for each item in this list.
1. COc1cccc(-c2ccc(S(=O)(=O)Nc3cccc4cnn(C)c34)cn2)n1
2. COc1ccc2cnn(C)c2c1NS(=O)(=O)c1cnn(-c2cc(N3CC(C)(C(N)=O)C3)ccn2)c1
3. COc1ccc2ccn(C)c2c1NS(=O)(=O)c1ccc(-n2cc(C(F)(F)F)cn2)nc1

Key:
["> 2500 nM", "> 2500 nM", "< 400 nM"]

Hi team, please reply with IC50 for each item in this list.
1. COc1ncc2cnn(C)c2c1NS(=O)(=O)c1cnn(-c2cc(C(C)(F)F)ccn2)c1
2. Cc1cnn(C)c1-c1ccc(S(=O)(=O)Nc2cccc3cnn(C)c23)cn1
3. COC1(c2ccnc(-n3cc(S(=O)(=O)Nc4cccc5cnn(C)c45)cn3)c2)CC(C)(C)C1
4. COc1ccc2cnn(C)c2c1NS(=O)(=O)c1cnn(-c2cc(N3CC4CC3C4)ccn2)c1
5. COc1ncc2cnn(C)c2c1NS(=O)(=O)c1ccc(N2C[C@@](O)(C(F)(F)F)CC2=O)nc1

Key:
≤ 400 nM
> 2500 nM
> 2500 nM
400 to 1000 nM
< 400 nM

Hi team, please reply with IC50 for each item in this list.
1. Cn1ncc2cccc(NS(=O)(=O)c3cnn(-c4cc(N5CC(F)(F)C5)ccn4)c3)c21
2. CCC(C)(O)c1ccnc(-n2cc(S(=O)(=O)Nc3c(OC)ccc4cnn(C)c34)cn2)c1 (single isomer, unassigned)
3. Cc1ncn2cccc(NS(=O)(=O)c3cnn(-c4cc(C(F)(F)F)ccn4)c3)c12

Key:
> 2500 nM
400 to 1000 nM
> 2500 nM

Exercise: GET /values?readout=IC50&item= COc1ncc2cnn(C)c2c1NS(=O)(=O)c1cnn(-c2cc(N3CCC(F)(F)C3)ccn2)c1
Key: 400 to 1000 nM
